From: ChEMBL document CHEMBL1154674

# Tested on: Heart
# ASSAY_NAME: Biodistribution in NMRI mouse heart assessed per gram of tissue at 3.7 MBq/mL, iv after 60 mins by gamma counting
# Assay type: ADME, organism-based
# CONDITION: in vivo, 1 h
ASSAY_READOUT: Drug uptake (%)
Form entry: value (%) — number only.

Noted for CN(C)c1ccc2nc(-c3ccc([18F])cc3)sc2c1 : its Drug uptake reads 1.3

Noted for Cc1ccc2nc(-c3ccc([18F])cc3)sc2c1 : its Drug uptake reads 0.5

Noted for [11CH3]Nc1ccc(-c2nc3ccc(O)cc3s2)cc1 : its Drug uptake reads 2.1

Noted for CNc1ccc2nc(-c3ccc([18F])cc3)sc2c1 : its Drug uptake reads 1

Noted for Nc1ccc2nc(-c3ccc([18F])cc3)sc2c1 : its Drug uptake reads 0.7

---

# System: Lung
# ASSAY_NAME: Drug level in NMRI mouse lung assessed as standard uptake value at 3.7 MBq/mL, iv after 60 mins by gamma counting
# Assay type: ADME, organism-based
# CONDITION: in vivo, 1 h
Would you kindly list SUV for each of these molecules?
// no unit string in output, number only

Noted for Nc1ccc2nc(-c3ccc([18F])cc3)sc2c1 : its SUV reads 0.4

Noted for Cc1ccc2nc(-c3ccc([18F])cc3)sc2c1 : its SUV reads 0.5

Noted for CN(C)c1ccc2nc(-c3ccc([18F])cc3)sc2c1 : its SUV reads 0.7

Noted for CNc1ccc2nc(-c3ccc([18F])cc3)sc2c1 : its SUV reads 0.5

Noted for [11CH3]Nc1ccc(-c2nc3ccc(O)cc3s2)cc1 : its SUV reads 0.4

---

# Test system: Kidney
# ASSAY_NAME: Biodistribution in NMRI mouse kidney assessed per gram of tissue at 3.7 MBq/mL, iv after 2 mins by gamma counting
# Format: ADME, organism-based
# CONDITION: in vivo
Would you kindly list Drug uptake for each of these molecules?
Form entry: value (%) — number only.

Noted for CN(C)c1ccc2nc(-c3ccc([18F])cc3)sc2c1 : its Drug uptake reads 11.7

Noted for Nc1ccc2nc(-c3ccc([18F])cc3)sc2c1 : its Drug uptake reads 13.3

Noted for Cc1ccc2nc(-c3ccc([18F])cc3)sc2c1 : its Drug uptake reads 9.3

Noted for CNc1ccc2nc(-c3ccc([18F])cc3)sc2c1 : its Drug uptake reads 12.6

Noted for [11CH3]Nc1ccc(-c2nc3ccc(O)cc3s2)cc1 : its Drug uptake reads 19.9

---

# Tested on: Blood
# ASSAY_NAME: Biodistribution in NMRI mouse blood at 3.7 MBq/mL, iv after 60 mins by gamma counting
# Format: ADME, organism-based
# CONDITION: in vivo, 1 h
Please use t whenever Drug uptake is not below 2%, and f whenever it is.

# check: Drug uptake of [11CH3]Nc1ccc(-c2nc3ccc(O)cc3s2)cc1 is greater than or equal to 2% t

# check: Drug uptake of CN(C)c1ccc2nc(-c3ccc([18F])cc3)sc2c1 is greater than or equal to 2% t

# check: Drug uptake of Nc1ccc2nc(-c3ccc([18F])cc3)sc2c1 is greater than or equal to 2% f

# check: Drug uptake of Cc1ccc2nc(-c3ccc([18F])cc3)sc2c1 is greater than or equal to 2% t

# check: Drug uptake of CNc1ccc2nc(-c3ccc([18F])cc3)sc2c1 is greater than or equal to 2% t
